Kindly state gcPBM binding intensity (ln) for each of the entries shown.
Tested on: PfAP2-EXP AP2 domain (GST-tagged)
PROCEDURE_TEXT: gcPBM binding intensity (ln(normalized median fluorescence intensity)); higher = stronger DNA binding
In all, about 25,000 sequences were measured (“ln(normalized median fluorescence intensity)”: median about 8.6, highest 2% from about 10 on). Shown is part of a subset that was picked to be rich in the highest values.
// return a plain number; no unit text

Query: Any idea what gcPBM binding intensity (ln) was measured for ATATACAGAAAAAATTAAAATAAATATGCAAAACAA [CACACA_negctrl_site704] ?
Result: 8.86

Query: Any idea what gcPBM binding intensity (ln) was measured for AAATGTTATATATAATGTACTTGTAAGAACGTTCCT [XGTACX_site2840] ?
Result: 8.67

Query: Any idea what gcPBM binding intensity (ln) was measured for AATGTATATATGTAATGTACATATGTAATGTATATA [XGTACX_site6509] ?
Result: 8.62

Query: Any idea what gcPBM binding intensity (ln) was measured for GTTTGTATGTCCAAATGTACATATGATTTTATGAAA [XGTACX_site6595] ?
Result: 8.72

Query: Any idea what gcPBM binding intensity (ln) was measured for AAATGAATTATATAATATATATAAATAAATAAATAA [CACACA_negctrl_site359] ?
Result: 8.46

Query: Any idea what gcPBM binding intensity (ln) was measured for "ATAAATAAAACAACAGTGCAATAAAATTAGTTGAGG" ?
Result: 9.04

Query: Any idea what gcPBM binding intensity (ln) was measured for GATATTACGTGTTTGGTATTTTTTGATGTTAATAGG [CACACA_negctrl_site105] ?
Result: 8.8

Query: Any idea what gcPBM binding intensity (ln) was measured for TATAAAATGTAATCTGAACACACATATTTTTTTAAT [CACACA_site8521] ?
Result: 8.11

Query: Any idea what gcPBM binding intensity (ln) was measured for AAAATAAAATTAGTTGCATGCAACTTAAACAGAAAT [TGCATGCA_site860] ?
Result: 10.3

----------
Kindly state gcPBM binding intensity (ln) for each of the entries shown.
System: PfAP2-EXP AP2 domain (GST-tagged)
PROCEDURE_TEXT: gcPBM binding intensity (ln(normalized median fluorescence intensity)); higher = stronger DNA binding
In all, about 25,000 sequences were measured (“ln(normalized median fluorescence intensity)”: median about 8.6, highest 2% from about 10 on). The sample holds the highest values, similar sequences and a random draw of the others, so the mix is not that of the screen.
// return a plain number; no unit text

Query: Any idea what gcPBM binding intensity (ln) was measured for CATATGATATTATTTTGTACTTATTACAAATATGAA [XGTACX_site7929] ?
Result: 8.4

Query: Any idea what gcPBM binding intensity (ln) was measured for GTTTTTATCATATCATGTACGTATTTTATTTTTTTT [XGTACX_site8643] ?
Result: 9.03

Query: Any idea what gcPBM binding intensity (ln) was measured for CATATAATAAATAATACACACATATTGTAAATATAT [CACACA_site5734] ?
Result: 8.43

Query: Any idea what gcPBM binding intensity (ln) was measured for AGAAATAAGAAATATACACACATATAAATATAAATA [CACACA_site7342] ?
Result: 8.52

Query: Any idea what gcPBM binding intensity (ln) was measured for ATAAATTGAAGTAAATTTGACCTTTTTTTTTTTTTT [GTGCAC_negctrl_site354] ?
Result: 8.31

Query: Any idea what gcPBM binding intensity (ln) was measured for AGAAATAAGAAATATACACACATATATATATATATA [CACACA_site2808] ?
Result: 10.2

Query: Any idea what gcPBM binding intensity (ln) was measured for TTTTTTTTTTTTTTTTTTAAACACCTCAAAAAAAAA [CACACA_negctrl_site807] ?
Result: 8.04

Query: Any idea what gcPBM binding intensity (ln) was measured for GTGCATATGTAGATATGTACATATTTATTTATTATT [XGTACX_site7343] ?
Result: 8.38

Query: Any idea what gcPBM binding intensity (ln) was measured for TAAAGAAATAAATACATACACACATATATATATATA [CACACA_site3363] ?
Result: 10.2

Query: Any idea what gcPBM binding intensity (ln) was measured for TCGGGAGGGGGGAAGCGTACATATATAAAATTATTA [XGTACX_site4683] ?
Result: 10.4

Query: Any idea what gcPBM binding intensity (ln) was measured for AAAAAAAAAAAAGAAAAATATATATATAAATAAATA [GTGCAC_negctrl_site569] ?
Result: 8.29

Query: Any idea what gcPBM binding intensity (ln) was measured for TAAAATATAATAAAATGTACACGCATGCAATAGAAT [XGTACX_site7434] ?
Result: 9.99

Query: Any idea what gcPBM binding intensity (ln) was measured for TTCTTTGTTTTTTTTTTTTTTTTAAAAGATAATATT [XGTACX_negctrl_site381] ?
Result: 8.43

Query: Any idea what gcPBM binding intensity (ln) was measured for ATATATATATATGTATGTACGTATGTATGTATGAAT [XGTACX_site4857] ?
Result: 9.91

Query: Any idea what gcPBM binding intensity (ln) was measured for TTTTTTTATTAATGTAGTACAATATAATGTTATATT [XGTACX_site2295] ?
Result: 8.54

Query: Any idea what gcPBM binding intensity (ln) was measured for TAATAAAATGTACACGCATGCAATAGAATATAAAGT [TGCATGCA_site905] ?
Result: 10.3

Query: Any idea what gcPBM binding intensity (ln) was measured for AAGAAATAAATACATACACACATATATAAATAAATA [CACACA_site7559] ?
Result: 8.68

Query: Any idea what gcPBM binding intensity (ln) was measured for AAGAAATAAATACATACACACATATATATATATATA [CACACA_site3362] ?
Result: 10

Query: Any idea what gcPBM binding intensity (ln) was measured for AATTGCATAATATATTCACACATTTTTAAGTGATAC [CACACA_site5679] ?
Result: 8.38
